- Test summary: Biodistribution of 99mTc labelled complexes in rats (Tc brain bioassay, Example 64, Table I)
- Format: in vivo, Female Sprague-Dawley rats
- Details: rat, i.v. tail vein, 5 min post injection
- Method: Distribution of the ^99m Tc labelled compounds was evaluated in rats. […] The animals were sacrificed at 5 and 30 minutes post injection and selected organs were removed; the tails were discarded to avoid interference from the injection site. The radioactivity in each organ was measured at a standard geometry with a […] sodium iodide scintillation counter adjusted for the 140 KeV emission of ^99m Tc. […]
Measured endpoint: Brain % dose (% dose)
Respond numerically; units are % dose and should not be typed.

### Prompt May I ask what Brain % dose has been recorded for CC1(C)C(=O)[N]2CC[N]3c4ccccc4[S][Tc]23(=[O])[SH]1CCCl (stereo not drawn) [Example T730] ?
### Response 2.45

### Prompt Recorded Brain % dose for CC1(C)C(=O)[N]2CC[N]3c4ccccc4[S][Tc]23(=[O])[SH]1CCC#N (stereo not drawn) [Example T731] , please?
### Response 1.49

### Prompt Can you look up the measured Brain % dose of C[SH]1C(C)(C)C(=O)[N]2CC[N]3c4ccccc4[S][Tc]231=[O] (stereo not drawn) [Example T711] for me?
### Response 2.33

### Prompt Record request: Brain % dose value, item C=CC[SH]1C(C)(C)C(=O)[N]2CC[N]3c4ccccc4[S][Tc]231=[O] (stereo not drawn) [Example T721]
### Response 1.82

### Prompt Record request: Brain % dose value, item CC[SH]1C(C)(C)C(=O)[N]2CC[N]3c4ccccc4[S][Tc]231=[O] (stereo not drawn) [Example T715]
### Response 2.55

### Prompt Returns the measured Brain % dose for the input compound. Input: CCCC[SH]1C(C)(C)C(=O)[N]2CC[N]3c4ccccc4[S][Tc]231=[O] (stereo not drawn) [Example T714]
### Response 1.43

### Prompt So what's the measured Brain % dose for this one? C#CC[SH]1C(C)(C)C(=O)[N]2CC[N]3c4ccccc4[S][Tc]231=[O] (stereo not drawn) [Example T722]
### Response 1.58

### Prompt Requested read-out: Brain % dose. Entry: CCC[SH]1c2ccccc2[N]2CC[N]3C(=O)C(C)(C)[S][Tc]321=[O] (stereo not drawn) [Example T717]
### Response 1.27

### Prompt Find the recorded Brain % dose belonging to COC(=O)C[SH]1C(C)(C)C(=O)[N]2CC[N]3c4ccccc4[S][Tc]231=[O] (stereo not drawn) [Example T727] and report it.
### Response 0.09

### Prompt Return reported Brain % dose; argument: CCC[SH]1C(C)(C)C(=O)[N]2CC[N]3c4ccccc4[S][Tc]231=[O] (stereo not drawn) [Example T713]
### Response 1.55

### Prompt May I ask what Brain % dose has been recorded for C=CC[SH]1C(C)(C)C(=O)[N]2CC[N]3c4ccccc4[S][Tc]231=[O] (stereo not drawn) [Example T719] ?
### Response 1.86

### Prompt Recorded Brain % dose of CC1(C)C(=O)[N]2CC[N]3c4ccccc4[S][Tc]23(=[O])[SH]1CCCN (stereo not drawn) [Example T728] , please.
### Response 0.03

### Prompt Which Brain % dose is reported for this compound? C[SH]1c2ccccc2[N]2CC[N]3C(=O)C(C)(C)[S][Tc]321=[O] (stereo not drawn) [Example T712]
### Response 1.69

### Prompt Sample CC1(C)C(=O)[N]2CC[N]3c4ccccc4[S][Tc]23(=[O])[SH]1CCO (stereo not drawn) [Example T726] — what was its Brain % dose?
### Response 1.11

### Prompt I'd like to know its Brain % dose. The compound in question is C[SH]1c2ccccc2[N]2CC(=O)[N]3CC(C)(C)[S][Tc]321=[O] (stereo not drawn) [Example T729]
### Response 0.87
